- MEASURED ON: Muscarinic acetylcholine receptor M4 (Rattus norvegicus)
- METHOD SUMMARY: Positive allosteric modulation of rat M4 receptor expressed in CHO cells co-expressing Gqi5 assessed as increase in acetylcholine-induced calcium mobilization
- Type: functional, cell-based
- CONDITION SUMMARY: read-out: EC50
ENDPOINT: EC50 (nM)

Here is how some molecules turned out for EC50.
Cc1cc(C)c2cc(C(=O)NC3CN(c4ncc(C(F)(F)F)cn4)C3)ccc2n1 3910
Cc1cc(C)c2cc(C(=O)NC3CN(c4ncccc4Cl)C3)ccc2n1 935
Cc1cc(C)c2cc(C(=O)NC3CN(c4cccc(Cl)n4)C3)ccc2n1 440

1. Cc1cc(C)c2cc(C(=O)NC3CN(c4ccc(C(F)(F)F)nc4)C3)ccc2n1
2. Cc1cc(C)c2cc(C(=O)NC3CN(c4ccnc(OC(F)F)c4)C3)ccc2n1
Which entry has a larger number for EC50, 1 or 2 ? API: response body contains the label of the selected item.
2

---

- METHOD SUMMARY: Fraction unbound in rat brain
- Assay type: ADME, tissue-based
ENDPOINT: fraction unbound

Here is how some compounds turned out for fraction unbound.
COc1cc(N2CC(NC(=O)c3ccc4nc(C)cc(C)c4c3)C2)c(Cl)cn1 0.008
Cc1cc(C)c2cc(C(=O)NC3CN(c4ccnc(F)c4F)C3)ccc2n1 0.023

P. Cc1cc(C)c2cc(C(=O)NC3CN(c4cc(Cl)ncc4Cl)C3)ccc2n1
Q. Cc1cc(C)c2cc(C(=O)NC3CN(c4ccc(C(F)(F)F)nc4)C3)ccc2n1
In terms of reported fraction unbound, does P or Q have the smaller number? API: response body contains the label of the selected item.
P
(P: 0.006, Q: 0.016)

---

- METHOD SUMMARY: Ratio of unbound brain to plasma concentration in Sprague-Dawley rat at 0.2 mg/kg, iv measured after 0.25 hrs
- Type: ADME, organism-based
- CONDITION SUMMARY: brain and plasma, read-out: K(p,uu,brain)
ENDPOINT: Kp uu at 0.25 h

COc1cc(N2CC(NC(=O)c3ccc4nc(C)cc(C)c4c3)C2)c(Cl)cn1 3.36
Cc1cc(C)c2cc(C(=O)NC3CN(c4cc(Cl)ncc4Cl)C3)ccc2n1 0.3

P. Cc1cc(C)c2cc(C(=O)NC3CN(c4ccc(C(F)(F)F)nc4)C3)ccc2n1
Q. Cc1cc(C)c2cc(C(=O)NC3CN(c4ccnc(F)c4F)C3)ccc2n1
In terms of reported Kp uu at 0.25 h, does P or Q have the smaller number? API: response body contains the label of the selected item.
P
(P: 0.2, Q: 0.3)

---

- METHOD SUMMARY: Brain to plasma partition coefficient, Kp of the compound in Sprague-Dawley rat at 0.2 mg/kg, iv measured after 0.25 hrs
- Format: ADME, organism-based
- CONDITION SUMMARY: brain and plasma
ENDPOINT: Kp at 0.25 h

COc1cc(N2CC(NC(=O)c3ccc4nc(C)cc(C)c4c3)C2)c(Cl)cn1 0.84

A. Cc1cc(C)c2cc(C(=O)NC3CN(c4ccnc(F)c4F)C3)ccc2n1
B. Cc1cc(C)c2cc(C(=O)NC3CN(c4cc(Cl)ncc4Cl)C3)ccc2n1
In terms of reported Kp at 0.25 h, does A or B have the smaller number? API: response body contains the label of the selected item.
B
(B: 0.1, A: 0.17)

---

- METHOD SUMMARY: Intrinsic clearance in rat liver microsomes
- Format: ADME, microsome
- CONDITION SUMMARY: read-out: CLH
ENDPOINT: CLint scaled (mL/min/kg)

Cc1cc(C)c2cc(C(=O)NC3CN(c4ccnc(F)c4F)C3)ccc2n1 232

1. Cc1cc(C)c2cc(C(=O)NC3CN(c4ccc(C(F)(F)F)nc4)C3)ccc2n1
2. Cc1cc(C)c2cc(C(=O)NC3CN(c4cc(Cl)ncc4Cl)C3)ccc2n1
3. COc1cc(N2CC(NC(=O)c3ccc4nc(C)cc(C)c4c3)C2)c(Cl)cn1
Please list these compounds in decreasing order of CLint scaled. Lab note: final answer is the ordered label list.
2, 3, 1

---

- MEASURED ON: Muscarinic acetylcholine receptor M4 (Rattus norvegicus) (UniProt P08485)
- Sequence (whole entry): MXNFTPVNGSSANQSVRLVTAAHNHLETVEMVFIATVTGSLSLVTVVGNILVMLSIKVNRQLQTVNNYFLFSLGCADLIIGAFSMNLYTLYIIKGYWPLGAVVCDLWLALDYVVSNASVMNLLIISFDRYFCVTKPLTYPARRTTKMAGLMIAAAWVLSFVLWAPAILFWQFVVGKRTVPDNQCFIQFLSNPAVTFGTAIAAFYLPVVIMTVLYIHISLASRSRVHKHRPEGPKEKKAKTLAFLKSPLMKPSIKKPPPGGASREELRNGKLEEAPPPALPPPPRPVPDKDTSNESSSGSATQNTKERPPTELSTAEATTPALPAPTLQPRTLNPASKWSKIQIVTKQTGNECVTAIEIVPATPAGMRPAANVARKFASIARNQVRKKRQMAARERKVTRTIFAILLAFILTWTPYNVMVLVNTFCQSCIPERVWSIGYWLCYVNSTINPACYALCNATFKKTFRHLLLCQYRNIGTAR
- METHOD SUMMARY: Positive allosteric modulation of rat M4 receptor expressed in CHO cells co-expressing Gqi5 assessed as increase in acetylcholine-induced calcium mobilization relative to acetylcholine
- Assay type: functional, cell-based
ENDPOINT: %max (%)

Cc1cc(C)c2cc(C(=O)NC3CN(c4ccnc(F)c4F)C3)ccc2n1 82
Cc1cc(C)c2cc(C(=O)NC3CN(c4ncccc4Cl)C3)ccc2n1 82
Cc1cc(C)c2cc(C(=O)NC3CN(c4cc(Cl)ncc4Cl)C3)ccc2n1 57
Cc1cc(N2CC(NC(=O)c3ccc4nc(C)cc(C)c4c3)C2)cc(OC(F)F)n1 71
Cc1cc(C)c2cc(C(=O)NC3CN(c4ncc(F)cc4Cl)C3)ccc2n1 72

---

- METHOD SUMMARY: Fraction unbound in human plasma
- Assay type: ADME, cell-free
ENDPOINT: fraction unbound

Cc1cc(C)c2cc(C(=O)NC3CN(c4ccnc(F)c4F)C3)ccc2n1 0.009
Cc1cc(C)c2cc(C(=O)NC3CN(c4cc(Cl)ncc4Cl)C3)ccc2n1 0.002

I. COc1cc(N2CC(NC(=O)c3ccc4nc(C)cc(C)c4c3)C2)c(Cl)cn1
II. Cc1cc(C)c2cc(C(=O)NC3CN(c4ccc(C(F)(F)F)nc4)C3)ccc2n1
Which entry has a larger number for fraction unbound, I or II ? API: response body contains the label of the selected item.
II
(II: 0.005, I: 0.002)
